Provenance of the data: patent US9266930

target: HLA-A*1101 (purified HLA class I molecule) (human); assay: competition with a 125I-labelled probe peptide for purified HLA-A*1101
Catalogue of binding affinity ratio (IC50 of standard peptide / IC50 of test peptide) readings, one per entry.
Please respond with just the number, no unit label.

Observe how each entry below is paired with its result.
# binder, result number
rows = [
    ("VVPGAATPY (modifications not checked) [… (Pf SSP2 521, 9-mer)]", 0.0002),
    ("QVRKHLNDR (modifications not checked) [… (Pf SSP2 139, 9-mer)]", 0.0002),
    ("SIRRHNWVNH (modifications not checked) [… (Pf SSP2 58, 10-mer)]", 0.0002),
    ("WSPCSVTCGK (modifications not checked) [… (Pf SSP2 250, 10-mer)]", 0.0002),
]

Item under review: SIQDSLKESR (modifications not checked) [… (Pf SSP2 167, 10-mer)] . Reported binding affinity ratio (IC50 of standard peptide / IC50 of test peptide)? 0.0009

Item under review: VGCHPSDGK (modifications not checked) [… (Pf SSP2 203, 9-mer)] . Reported binding affinity ratio (IC50 of standard peptide / IC50 of test peptide)? 0.0003
